assay.setup: human gut metagenome, 24 h, 2 µM; further: call rule not given here
property.name: Bacterial Biotransformation

>>> measured_result("CCN1CCCC1CNC(=O)c1cc(S(N)(=O)=O)ccc1OC (stereo not drawn) [SULPIRIDE]")
"Compound NOT metabolized"
>>> measured_result("CCC(COC(=O)c1cc(OC)c(OC)c(OC)c1)(c1ccccc1)N(C)C.O=C(O)/C=C\\C(=O)O (stereo not drawn)")
"Compound NOT metabolized"
>>> measured_result("C#C[C@]1(O)CC[C@H]2[C@@H]3CCC4=CC(=O)CC[C@@H]4[C@H]3CC[C@@]21CC")
"Compound metabolized"
>>> measured_result("O=C(O)CCc1nc(-c2ccccc2)c(-c2ccccc2)o1")
"Compound metabolized"
>>> measured_result("CN1CCN(CC/C=C2/c3ccccc3Sc3ccc(S(=O)(=O)N(C)C)cc32)CC1")
"Compound metabolized"

Query: Give Bacterial Biotransformation for the following compound: CN1CCc2cccc3c2[C@H]1Cc1ccc(O)c(O)c1-3
Result: Compound NOT metabolized

Query: Specify measured Bacterial Biotransformation for CCN(CC)C(C)CN1c2ccccc2Sc2ccccc21 (stereo not drawn) .
Result: Compound metabolized

Attribution: ChEMBL document CHEMBL5724914
